# Test details: qHTS assay for identifying genotoxic compounds that show differential cytotoxicity against isogenic chicken DT40 cell lines with known DNA damage response pathways - Rev3 mutant cell line (AID 743014); note: nearly all actives have a fitted effect of over 55% in size; note: potency is the fitted concentration of half-maximal effect
# Test conditions: chicken DT40 Rev3-/- viability, CellTiter-Glo, 40 h; series mostly up to 68.4 µM
Inconclusive results are not listed. Active and inactive are the calls of the source. Calls come from the whole dose curve; as a rule, active = well fitted cell-killing curve with a large enough effect in the repeat runs; inconclusive = weak or mixed curves, or effect the other way; inactive = no such curve, though single readings can be large or run the other way.
Readout name: Potency

Recorded Potency of Clc1cccc(-c2cc(Cl)cc(Cl)c2)c1 , please.
inactive

So what does the record say about Potency for CS(=O)(=O)c1ccc([C@@H](O)[C@@H](CF)NC(=O)C(Cl)Cl)cc1 ?
6.39 µM (active)

Suppose we examine the compound CC1(C)C(=O)N(Cl)C(=O)N1Br ; what Potency value has been reported?
inactive

Return reported Potency; argument: CCOc1ccc(OCC)c(Cl)c1
inactive

I have this compound here, CCCCC(CC)COC(=O)COc1cc(Cl)c(Cl)cc1Cl (stereo not drawn) , and I need its recorded Potency.
inactive

Which Potency value is on record for COc1nc(C)nc(NC(=O)NS(=O)(=O)c2ccccc2OCCCl)n1 ?
inactive

Fill in: Potency of CCC(=O)Nc1ccc(O)cc1 is ___
inactive

# input compound: O=C1CCCCCCCCCCC(=O)OCCO1 ; wanted: its Potency
inactive

Others:
Name the reported Potency value associated with the compound CC(=O)OC(C)OC(C)=O
70.7 µM (active)

# Potency lookup, item N#Cc1ccc(C(c2ccc(C#N)cc2)n2cncn2)cc1
inactive

May I ask what Potency has been recorded for CC(=O)N(CC(O)CN(C(C)=O)c1c(I)c(C(=O)NCC(O)CO)c(I)c(C(=O)NCC(O)CO)c1I)c1c(I)c(C(=O)NCC(O)CO)c(I)c(C(=O)NCC(O)CO)c1I (stereo not drawn) ?
inactive

Which Potency value is on record for CC/C=C\CCOC(=O)CCCCC ?
inactive

I have this compound here, COc1ccccc1N1CCN(CCCNc2cc(=O)n(C)c(=O)n2C)CC1 , and I need its recorded Potency.
inactive

Query: Potency; subject: COc1cc(C)ccc1C(C)C
inactive

Returns the measured Potency for the input compound. Input: OCc1ccccc1O
inactive

I am curious: what Potency value has been reported for COc1ccc2nc(NC(=O)Nc3ccccc3)sc2c1 ?
26.6 µM (active)

Which Potency value is on record for Oc1ccccc1C=NCc1ccccc1 ?
inactive

# input compound: O=Cc1ccc(F)c(Br)c1 ; wanted: its Potency
inactive

What does the record list as Potency for ClC(Cl)Cl ?
inactive

Record request: Potency value, item Cc1cc2nc(N)sc2cc1C
55 µM (active)

Form field: reported Potency of CCN[C@H]1CN(CCCOC)S(=O)(=O)c2sc(S(N)(=O)=O)cc21
inactive

Can you look up the measured Potency of CCCCCCCCCCCCOCCOS(=O)(=O)O for me?
inactive

Query (compound): CC(C)C1=CC2=CC[C@@H]3[C@](C)(CCC[C@@]3(C)C(=O)O)[C@H]2CC1 ; field requested: Potency
inactive

----------
# Test details: qHTS assay to identify small molecule agonists of the progesterone receptor (PR) signaling pathway - cell viability counter screen (AID 1346799); note: % is set by controls: 0 for no effect and ±100 for the full control effect; nearly all actives have a fitted effect of over 45% in size
# Test conditions: PR-UAS-bla HEK293T viability, CellTiter-Glo luminescence, 16 h; series mostly up to 92.4 µM
Results filed as inconclusive are left out. Calls of active or inactive are those of the source. Calls follow the shape of the full dose curve.
Readout name: activity change, negative = cytotoxicity

Field: example entries. Status: answers known.
What value of activity change, negative = cytotoxicity has been recorded for this entry: COC(=O)c1ccc2cc(C(=O)OC)ccc2c1
-2.9% [at 19 µM] (inactive)

I am curious: what activity change, negative = cytotoxicity value has been reported for CN1CCC[C@@H]1Cc1c[nH]c2ccc(CCS(=O)(=O)c3ccccc3)cc12 ?
inactive

Quick check: activity change, negative = cytotoxicity of CCN(CC)CCOc1ccc(Cc2ccccc2)cc1 ?
inactive

Requested field: activity change, negative = cytotoxicity. Item: C[C@@H]1CN(c2c(F)c(N)c3c(=O)c(C(=O)O)cn(C4CC4)c3c2F)C[C@H](C)N1
4.97% [at 19 µM] (inactive)

Fill in the blank: the reported activity change, negative = cytotoxicity of O=C(O)[C@@H](O)[C@H](O)[C@H](O)[C@@H](O)C(=O)O is ____.
inactive

What value of activity change, negative = cytotoxicity has been recorded for this entry: C/C(=N\O)[C@@H](C)NCC(C)(C)CN[C@H](C)/C(C)=N/O
inactive

What does the record list as activity change, negative = cytotoxicity for CC(C)C(=O)OCC(C)(C)C(O)C(C)C (configuration not stated) ?
inactive

Given C[C@@H](N)C(=O)O , state its recorded activity change, negative = cytotoxicity.
inactive

What measured activity change, negative = cytotoxicity goes with NCCC(O)(P(=O)(O)O)P(=O)(O)O ?
inactive

Give its activity change, negative = cytotoxicity value. Item: Cc1cc2c(s1)Nc1ccccc1N=C2N1CCN(C)CC1
inactive

***
Could you tell me which activity change, negative = cytotoxicity is on file for Nc1ccc2ccccc2c1S(=O)(=O)O ?
inactive

Any idea what its activity change, negative = cytotoxicity is? The compound is CC(=O)Oc1cc(C(C)C)c(OCCN(C)C)cc1C
inactive

----------
# Test details: qHTS assay to test for compound auto fluorescence at 590 nm (red) in HEK293 cells (AID 720679); note: % is set by controls: 0 for no effect and ±100 for the full control effect
# Test conditions: red autofluorescence 540/590 nm; series mostly up to 91.3 µM
Calls of active or inactive are those of the source. Calls follow the shape of the dose curve; as a rule, active = well fitted curve in the direction sought with a large enough effect in the repeat runs; inconclusive = weak or mixed curves; inactive = flat fitted curve, though single readings scatter.
Readout name: fluorescence, % of fluorescent control

Requested field: fluorescence, % of fluorescent control. Item: Cc1ccc(C(C)C)cc1O
inactive

May I ask what fluorescence, % of fluorescent control has been recorded for CC(C)(C)c1cccc(O)c1 ?
inactive

Reported fluorescence, % of fluorescent control for CCCCCOc1ccc(C2SC(=O)NC2=O)cc1OCC (stereo not given) : what is it?
inactive

Recorded fluorescence, % of fluorescent control of OCCN1CCN(CCO)CC1 , please.
inactive

fluorescence, % of fluorescent control lookup needed for CCNCCO , thanks.
inactive

---
Item under review: Oc1ccccc1F . Reported fluorescence, % of fluorescent control?
inactive

Name the reported fluorescence, % of fluorescent control value associated with the compound Oc1ccccc1C=NCc1ccccc1
inactive

Reported fluorescence, % of fluorescent control for COc1ccc(Nc2ccc(OC)cc2)cc1 : what is it?
inactive

Item under review: CCCCc1ccc2nc(NC(=O)OC)[nH]c2c1 . Reported fluorescence, % of fluorescent control?
0.021% [at 18.6 µM] (inactive)

// fluorescence, % of fluorescent control lookup, key: COC(=O)c1ccc(OC)cc1
inactive

What value of fluorescence, % of fluorescent control has been reported for the following compound? O=C1CCCc2ccccc21
inactive

Record request: fluorescence, % of fluorescent control value, item C1CSCCS1
inactive

Bench note: what fluorescence, % of fluorescent control did O=C1N(c2ccccc2)c2ccccc2C1(Cc1ccncc1)Cc1ccncc1 show?
inactive

Reported fluorescence, % of fluorescent control, compound O=C(O)[C@@H](O)[C@H](O)[C@H](O)[C@@H](O)C(=O)O : ____
inactive

Fill blank: measured fluorescence, % of fluorescent control of the compound Cc1ccc([N+](=O)[O-])c(N)c1 is ____.
inactive

----------
# Test details: qHTS assay to identify small molecule HDAC inhibitors (AID 1259364);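 note: wild-type HCT-116 cells with endogenous class I/II HDAC activity; top concentration of the series differs between compounds; % is set by controls: 0 for no effect and ±100 for the full control effect; nearly all actives have a fitted effect of over 45% in size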
# Test conditions: HCT-116 HDAC-Glo I/II luminescence, 2 h; series mostly up to 92.4 µM
Results filed as inconclusive are left out. Active and inactive are the calls of the source. Calls follow the shape of the dose curve; as a rule, active = well fitted inhibition curve with a large enough effect in the repeat runs; inconclusive = weak or mixed curves; inactive = flat fitted curve, though single readings scatter.
Mark one answer only. Choices: 1 (yes) for active, 0 (no) for inactive

Which outcome was entered for the compound COc1ccccc1N1CCN(CCCNc2cc(=O)n(C)c(=O)n2C)CC1 in this test?
0 (no)

Could you now consider this next compound?
Write down the call the test reported for this compound. Item: CC(C)=CCCC(C)CCOC=O (configuration not stated)
0 (no)

----------
# Test details: qHTS assay to identify small molecule antagonists of the estrogen receptor alpha (ER-alpha) signaling pathway using the BG1 cell line in the presence of 0.1 nM 17-beta-estradiol - cell viability counter screen (AID 1259241); note: % is set by controls: 0 for no effect and ±100 for the full control effect; nearly all actives have a fitted effect of over 40% in size
# Test conditions: VM7Luc4E2 (BG1) viability, CellTiter-Fluor protease, 22 h, 0.1 nM estradiol agonist added; series mostly up to 92.4 µM
Inconclusive results are not listed. Active and inactive are the calls of the source. The call rests on the fitted dose curve; in most records, active means well fitted cell-killing curve with a large enough effect in the repeat runs; inconclusive means weak or mixed curves, or effect the other way; inactive means flat fitted curve, though single readings scatter.
Your response should consist of one outcome taken from active, inactive

// known answers, use as guide
For this compound, state the assay outcome: CCCCN1C[C@H](O)[C@@H](O)[C@H](O)[C@H]1CO
inactive

Dear colleague, could you share the recorded outcome for CC/C=C\CCOC(=O)C(C)C when you have a moment?
inactive

Which outcome was entered for the compound CCCCC(CC)COC(=O)COc1cc(Cl)c(Cl)cc1Cl (stereo unspecified) in this test?
inactive

Returns: the outcome recorded for COc1nc(C)nc(NC(=O)NS(=O)(=O)c2ccccc2OCCCl)n1 in this assay.
inactive

New cases:
Which outcome was assigned to Nc1cccc(S(=O)(=O)O)c1 in this test?
inactive

Which result was noted for this compound in the test: CC(C)OC(C)C
inactive

Returns: the outcome recorded for O=C1N(c2ccccc2)c2ccccc2C1(Cc1ccncc1)Cc1ccncc1 in this assay.
inactive

The origin of these recorded values is PubChem BioAssay (Tox21).
